Molecular target: UniProt Q9NR97
Sequence (Q9NR97 27-1041): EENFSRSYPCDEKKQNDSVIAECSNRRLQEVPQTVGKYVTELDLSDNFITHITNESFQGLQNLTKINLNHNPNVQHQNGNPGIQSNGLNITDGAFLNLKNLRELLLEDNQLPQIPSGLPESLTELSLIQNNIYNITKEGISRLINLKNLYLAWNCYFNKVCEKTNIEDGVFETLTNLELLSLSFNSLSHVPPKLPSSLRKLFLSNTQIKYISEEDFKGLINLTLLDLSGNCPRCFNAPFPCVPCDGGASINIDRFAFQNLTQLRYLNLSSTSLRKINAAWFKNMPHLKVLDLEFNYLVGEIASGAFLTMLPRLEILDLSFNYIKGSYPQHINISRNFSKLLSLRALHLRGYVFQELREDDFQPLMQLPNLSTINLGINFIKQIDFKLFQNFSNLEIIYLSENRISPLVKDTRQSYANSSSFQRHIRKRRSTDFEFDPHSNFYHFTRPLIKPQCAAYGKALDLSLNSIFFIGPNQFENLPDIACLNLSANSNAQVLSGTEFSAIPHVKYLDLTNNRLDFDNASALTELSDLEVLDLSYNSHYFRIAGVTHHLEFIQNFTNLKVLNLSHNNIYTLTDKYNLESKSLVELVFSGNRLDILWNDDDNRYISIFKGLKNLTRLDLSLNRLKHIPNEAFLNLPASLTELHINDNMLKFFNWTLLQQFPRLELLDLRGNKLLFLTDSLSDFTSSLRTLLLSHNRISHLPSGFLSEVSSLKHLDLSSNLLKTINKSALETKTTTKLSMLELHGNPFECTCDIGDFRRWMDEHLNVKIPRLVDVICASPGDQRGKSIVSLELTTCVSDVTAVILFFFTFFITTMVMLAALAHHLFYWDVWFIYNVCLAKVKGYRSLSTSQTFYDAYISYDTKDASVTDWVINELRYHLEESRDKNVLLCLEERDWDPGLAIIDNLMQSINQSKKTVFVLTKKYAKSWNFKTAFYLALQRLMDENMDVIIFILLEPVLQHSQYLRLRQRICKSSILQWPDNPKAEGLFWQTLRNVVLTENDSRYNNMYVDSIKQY
Experiment: HEK-Blue human TLR8 cells NF-κB SEAP reporter assay
Settings: stimulation for 20 hours
readoutKind: EC50 (nM)
One number for each entry, in nM.

> print(dat)
                                   molecule  reportedresult
1  CCCN(CCC)C(=O)C1=Cc2ccc(-c3cc(C)cc(S(=O)(=O)N4CC[C@@H](O)C4)c3)cc2N=C(N)C1               6

Parameter requested: EC50. Apply to each item below.
1. CCCN(CCC)C(=O)C1=Cc2ccc(-c3ccc(OC)c(S(=O)(=O)N4CC[C@@H](O)C4)c3)cc2N=C(N)C1
2. CCCN(CCC)C(=O)C1=Cc2ccc(-c3cccc(S(=O)(=O)N4CC(O)C4)c3)cc2N=C(N)C1
3. CCCN(CCC)C(=O)C1=Cc2ccc(-c3cncc(S(=O)(=O)N4CCNCC4)c3)cc2N=C(N)C1
4. CCCN(CCC)C(=O)C1=Cc2ccc(-c3cccc(S(=O)(=O)N4CC[C@H](O)C4)c3)cc2N=C(N)C1
5. CCCN(CCC)C(=O)C1=Cc2ccc(-c3cccc(S(=O)(=O)N4CC[C@@H](O)C4)c3)cc2N=C(N)C1
6. CCCN(CCC)C(=O)C1=Cc2ccc(-c3cccc(S(=O)(=O)N4CC(CO)C4)c3)cc2N=C(N)C1
7. CCCN(CCC)C(=O)C1=Cc2ccc(-c3cccc(S(=O)(=O)NCCO)c3)cc2N=C(N)C1
8. CCCN(CCC)C(=O)C1=Cc2ccc(-c3cccc(S(=O)(=O)N4CCC[C@@H](O)C4)c3)cc2N=C(N)C1

Found:
1. 4
2. 5
3. 17
4. 5
5. 5
6. 2
7. 6
8. 5
